# Assayed target: MAGI3_2, Q5TCQ9
# Sequence (Q5TCQ9 398-503): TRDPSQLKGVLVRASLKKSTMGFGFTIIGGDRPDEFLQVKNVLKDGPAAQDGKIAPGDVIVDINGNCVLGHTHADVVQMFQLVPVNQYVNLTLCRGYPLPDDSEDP
# Test protocol: holdup assay
# Set-up: key: below the threshold = too weak to quantify, mostly under pKd 3.1 to 4
# Run conditions: plain residues with an end cap or a label only (N-terminal biotin on a linker: ado-ado)
Quantity: pKd
Format: numeric value only, no unit, no commentary.

Worked cases, pKd given:
Returns the measured pKd for the input binder. Input: TLPRKRMSSI [GPRC6A, Q5T6X5]
4.15

What would you report for MLSKQSESAI [FLVCR1, Q9Y5Y0] ?
4.45

What would you report for PKRSFIESNV [TANC1, Q9C0D5] ?
5.24

What would you report for VNKSKLLTDV [KCNA1, Q09470] ?
4.16

Continuing:
Returns the measured pKd for the input binder. Input: FNSYSLTGYV [CLDN2, P57739]
4.21

What would you report for RRRESYSTTV [EVI5, O60447] ?
5.18

What would you report for LPHGHSTTRV [NLGN4X, Q8N0W4] ?
5.19
